assay info: probe aCHRDL2 binding to arrayed compounds – biochemical, biotinylated probe, 635/667 nm fluorescence, primary screen (AID 1100)
condition label: small-molecule microarray, higher = more signal
Consider the following molecules and their measured composite z-score readings.
Returns: the value as a bare number; no unit string appended.

Examples with their reported composite z-score follow.
[
  {
    "molecule": "COc1cc(CO)cc(I)c1O[C@H]1C=C(C(=O)NCCO)C[C@@H](NC2CCCCCC2)[C@@H]1O",
    "composite z-score": -0.675
  },
  {
    "molecule": "CC(=O)OCC1C2CC[C@H]3C(OCc4ccc(F)cc4C(F)(F)F)OC[C@]4(C)[C@H]3C2=C(CN4C(=O)OC(C)(C)C)[C@H](C)C1COC(C)=O (stereo partly drawn)",
    "composite z-score": 1.06
  }
]

# evaluate next
[in] Quick check: composite z-score of `C[C@@H]1ON(c2ccc(I)cc2)[C@H](c2cccc(NC(=O)OCC3c4ccccc4-c4ccccc43)c2)[C@H]1C(=O)N1C(=O)OC[C@H]1Cc1ccccc1` ?
[out] -0.387
